Assay: NCI Yeast Anticancer Drug Screen. Data for the mec2-1 strain (AID 157)
Details: S. cerevisiae mec2-1 strain, at 50.0 µM
The panel holds about 79,000 compounds, 15% with a hit somewhere; the sample as a whole holds those more often. Active and inactive are the calls of the source. Cut-off read from the data, not from the text of the source: active = growth inhibition above about 70%; inactive = the rest.
Please answer using one outcome listed in yes = active, no = inactive

### Prompt Returns: the outcome recorded for `Cc1onc(-c2ccccc2Cl)c1C(=O)NCC(=O)O` in this assay.
### Response no

### Prompt Here is the next compound: `Cc1c(-c2ccccc2)[nH]c2ccc(Cl)cc2c1=O`
### Response no

### Prompt Same again, this time with `CCCCCCCCCCCCCCCC[N+]1(CC)CCSCC1`
### Response yes

### Prompt Lookup `CC(=O)NNC(=O)c1ccccc1CO`
### Response no

### Prompt Note, next up: `COc1ccc(/C=C2/CCOC2=O)cc1`
### Response no

### Prompt Now give it for `Cn1c(=O)c2c(nc(N/N=C/c3ccccc3C(=O)O)n2C)n(C)c1=O` too.
### Response no

### Prompt Next: `O=C(c1ccccc1)c1nc2ccc(Cl)cc2cc1C(Br)Br`
### Response no

### Prompt Field entry: `COC(=O)COc1ccc(Cl)cc1C(=O)O`
### Response no

### Prompt Could you do the same for O=C(NN1C(=O)C(Cl)C1c1ccccc1O)c1ccccc1O (stereo not given) , please?
### Response no

### Prompt Again, but for `C=COCCC(C(=O)OCC)C(=O)OCC`
### Response no

### Prompt Check `N#Cc1[nH]cnc1N` too.
### Response no

### Prompt Query `c1ccc(-c2ccc3c4ccccc4ccn23)cc1` next
### Response no

### Prompt Input C/C(Cl)=C/CC1(C)CCCC(C)(C)CC1=O (stereo not given)
### Response no

### Prompt Item: `CC(=O)O[C@H]1CC[C@@]2(C)[C@@H](CC[C@@H]3[C@@H]2CC(=O)[C@@]2(C)[C@H]3C[C@@H]3CC(C)=CC(=O)[C@@H]32)C1`
### Response no

### Prompt Repeat for the following compound: CCN1CCCC(Nc2nc(Nc3ccc(Cl)c(Cl)c3)nc3ccc(Cl)cc23)C1 (stereo not given)
### Response yes

### Prompt Again, but for `C=CS(=O)(=O)CCCCCCCCCCCCCC`
### Response no

### Prompt Follow-up item: `Cc1ccc(/C(O)=C/c2nc3ccccc3oc2=O)cc1`
### Response no

### Prompt Try this compound next: COC(=O)C1C(C(=O)OC)C2(C)C(=O)C1(C)C(c1ccccc1)=C2c1ccccc1 (stereo not given)
### Response no

### Prompt Now try O=C1CC2CCC(C1)S2=O (stereo not given) .
### Response no

### Prompt Okay, and `COc1ccc(C(=O)c2ccc(Cl)cc2)c(O)c1OC` ?
### Response no

### Prompt Cool, now `CN(C)Cc1c(C(O)(c2ccccc2)c2ccccc2)cc2ccccc2c1Cl`
### Response no

### Prompt Proceed to COc1ccc(C2OC3=Nc4cc(C)c(C)cc4NC3C2=O)cc1OC (stereo not given)
### Response no

### Prompt Now the compound CCC(=O)OC1(c2ccccc2)C(CN(C)C)CCCC1CN(C)C (stereo not given)
### Response no

### Prompt Check FC(F)(F)c1ccc(C2SCc3nc4ccccc4n32)cc1 (stereo not given) too.
### Response no

### Prompt Likewise for `N#CCCc1c(-c2ccccc2)nc(N)[nH]c1=O` ?
### Response no
